- ASSAY_TARGET: IDO1 (Homo sapiens (Human), UniProt P14902)
- Sequence (P14902 whole entry): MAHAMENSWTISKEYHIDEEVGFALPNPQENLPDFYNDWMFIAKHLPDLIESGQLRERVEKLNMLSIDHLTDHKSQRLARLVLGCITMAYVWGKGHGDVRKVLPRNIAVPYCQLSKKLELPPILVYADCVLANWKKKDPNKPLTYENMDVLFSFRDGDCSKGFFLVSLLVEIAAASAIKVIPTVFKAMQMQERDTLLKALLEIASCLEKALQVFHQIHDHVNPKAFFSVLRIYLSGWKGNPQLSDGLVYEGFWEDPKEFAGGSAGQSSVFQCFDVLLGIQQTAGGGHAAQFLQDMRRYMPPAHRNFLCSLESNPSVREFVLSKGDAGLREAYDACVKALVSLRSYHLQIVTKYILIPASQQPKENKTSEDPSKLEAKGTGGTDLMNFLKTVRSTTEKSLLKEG
- METHOD_SUMMARY: IDO1 Cellular Assay in Hela Cells Stimulated with IFNγ
- Assay type: cell-based
- CONDITION_DETAILS: Hela cells stimulated with IFNγ 100 ng/mL; read-out: IDO1 HELA Cell Assay, IC50
READOUT_LABEL: IC50 (µM)

Some solved entries appear below for comparison.
ON=C(Nc1ccc(F)c(Br)c1)c1nonc1SCc1ncon1 [Example 156] | 0.114
CC(C)(O)C(O)CSc1nonc1/C(=N/O)Nc1ccc(F)c(Cl)c1 (single isomer, unassigned) [Example 190] | 0.111
CC(C)C(O)CCSc1nonc1/C(=N/O)Nc1ccc(F)c(Br)c1 (centres unmarked) [Example 54] | 0.2

1 = CS(=O)(=O)NCCSc1nonc1/C(=N/O)Nc1ccc(F)c(Cl)c1 [Example 184]
2 = O=c1[nH]nc(CSc2nonc2/C(=N/O)Nc2ccc(F)c(Br)c2)cc1C(F)(F)F [Example 92]
3 = ON=C(Nc1ccc(F)c(Br)c1)c1nonc1SCC1CCCNC1 (centres unmarked) [Example 158]
4 = CNc1c(NCCSc2nonc2/C(=N/O)Nc2ccc(F)c(Br)c2)c(=O)c1=O [Example 36]
Challenge: List from greatest to least IC50. Respond with an ordered listing of the labels, as requested.
Response given: 3, 2, 4, 1
